test: Multiple ascending dose (MAD) pharmacokinetics in healthy volunteers, BID for 14 days; type: in vivo, human; conditions: human, plasma, oral, 300 mg, 300 mg BID, Day 1, plasma; read-out: AUC12, mean (SD)
quantity_name: AUC (ng·h/mL)

INSERT INTO measurements (structure_string, data_value) VALUES
  ('CC(=O)N1CCC(COc2cc(F)c3c(=O)[nH]c(CSC4CCOCC4)nc3c2)CC1', 5590);

###

test: Food effect (high-fat breakfast) on RBN-3143 pharmacokinetics, cross-over; format: in vivo, human; conditions: human, plasma, po, 500 mg, single 500 mg oral dose, after a high-fat meal; read-out: Median Tmax
quantity_name: Tmax (h)

INSERT INTO measurements (compound, unit_label, data_value) VALUES
  ('CC(=O)N1CCC(COc2cc(F)c3c(=O)[nH]c(CSC4CCOCC4)nc3c2)CC1 [RBN‐3143]', 'h', 4);
